# System: Mycobacterium tuberculosis INH TSC ETH-res.
# measurement_protocol: microbe, parasite or virus in culture
# Format: cell-based
# experimental_parameters: read-out: MIC, INH TSC ETH-res.
measure_name: MIC (µg/mL)

compound	measure_name	val
O=C(NCc1ccc2ccccc2n1)c1cc([N+](=O)[O-])cc([N+](=O)[O-])c1 [Example 15]	MIC	0.05
O=C(NCc1cnc2ccccc2c1)c1cc([N+](=O)[O-])cc([N+](=O)[O-])c1 [Example 9]	MIC	0.03
O=C(NCc1ccccn1)c1cc([N+](=O)[O-])cc([N+](=O)[O-])c1 [Example 1]	MIC	0.8
O=C(NCC1CCCO1)c1cc([N+](=O)[O-])cc([N+](=O)[O-])c1 (stereo not shown) [Example 20]	MIC	1.6

====

# System: Mycobacterium tuberculosis CS-res.
# measurement_protocol: microbe, parasite or virus in culture
# Assay type: cell-based
# experimental_parameters: read-out: MIC, CS-res.

molecule	study_system	value_unit	MIC
CC(NC(=O)c1cc([N+](=O)[O-])cc([N+](=O)[O-])c1)c1ccccn1 (stereo not drawn)	Mycobacterium tuberculosis CS-res.	µg/mL	1.6
O=C(NCC1CCCO1)c1cc([N+](=O)[O-])cc([N+](=O)[O-])c1 (stereo not drawn)	Mycobacterium tuberculosis CS-res.	µg/mL	1.6
O=C(NCC1CCC=CO1)c1cc([N+](=O)[O-])cc([N+](=O)[O-])c1 (stereo not drawn)	Mycobacterium tuberculosis CS-res.	µg/mL	0.4

====

# Test system: Mycobacterium tuberculosis CS-res.
# measurement_protocol: microbe, parasite or virus in culture
# Type: cell-based
# experimental_parameters: read-out: MIC, CS-res.
MIC values, listed per item

query_smiles	MIC / µg/mL
O=C(NCc1cnc2ccccc2c1)c1cc([N+](=O)[O-])cc([N+](=O)[O-])c1	0.2
O=C(NCc1ccc2ccccc2n1)c1cc([N+](=O)[O-])cc([N+](=O)[O-])c1	0.2
O=C(NCc1ccccn1)c1cc([N+](=O)[O-])cc([N+](=O)[O-])c1	1.6
Cc1cccc(CNC(=O)c2cc([N+](=O)[O-])cc([N+](=O)[O-])c2)n1	1.6

Origin of the recorded values: patent US3995044A
